// values below are reported relative binding activity (% of WT)
Target: T1, EGFI-Cr1 N43A (human, UniProt P16422 24-63)
T1 construct: not shown: the constant region of human immunoglobulin gamma 1 heavy chain (Cr1) fused at the C-terminus
T1 chain: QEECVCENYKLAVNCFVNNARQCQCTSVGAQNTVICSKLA
Experiment: direct ELISA, coated EGFI-Cr1 fusion, 0.1 µg/ml antibody
Response body: numeric value in %, unit text excluded.

Take a look at these entries with their results.
Binder	Unit	relative binding activity (% of WT)
murine monoclonal antibody 1G10 (antibody, mouse IgG1, V domains shown, Mouse IgG1, kappa, from hybridoma; also called m290-1G10) VH: QIQLVQSGPELKKPGETVKISCKASGYTFTNYGMNWVKQAPGKGFKWMGWINTYTGEPTYADDFKGRFAFSLETSASTAYLQINNLQNEDMATYFCARWGYDFDYWGQGTTLTVSS VL: QIVLTQSPAIMSSSPGEKVTMTCSASSSISYMNWYQQKPGTSPKRWIYDTSKLASGVPARFSGSGSGTSYSLTISSMEAEDAATYYCHQRSSYPYTFGGGTKLEIKR	%	96
murine monoclonal antibody 4D2 (antibody, mouse IgG1, V domains shown, Mouse IgG1, kappa, from hybridoma; also called m338-4D2.20) VH: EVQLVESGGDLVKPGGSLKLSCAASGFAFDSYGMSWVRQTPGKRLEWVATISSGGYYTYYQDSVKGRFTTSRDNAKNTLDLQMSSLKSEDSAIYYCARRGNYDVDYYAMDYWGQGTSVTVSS VL: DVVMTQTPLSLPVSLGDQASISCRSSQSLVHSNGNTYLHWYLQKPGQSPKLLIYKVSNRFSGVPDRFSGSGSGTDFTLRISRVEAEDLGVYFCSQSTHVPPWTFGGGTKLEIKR	%	57
murine monoclonal antibody 12H8 (antibody, mouse IgG2a, V domains shown, Mouse IgG2a, kappa, from hybridoma; also called m342-12H8.3; m12H8) VH: QIQLVQSGPELKKPGETVKISCKTSGYTFTDYSMHWVNQAPGKGLKWMGWINTETGEPTYTDDFKGRFAFSLETSASTAYLQINNLKNEDTATYFCARTAVYWGQGTTLTVSS VL: DIQMTQSPSSLSASLGERVSLTCRASQEISGSLSWLQQKPDGTIKRLIYAASTLNSGVPKRFSGRRSGSDYSLTISSLESEDFVDYYCLQYSSYPWSFGGGTKLEIKR	%	96
murine monoclonal antibody 2D11 (antibody, mouse IgG1, V domains shown, Mouse IgG1, kappa, from hybridoma; also called m322-2D11.19) VH: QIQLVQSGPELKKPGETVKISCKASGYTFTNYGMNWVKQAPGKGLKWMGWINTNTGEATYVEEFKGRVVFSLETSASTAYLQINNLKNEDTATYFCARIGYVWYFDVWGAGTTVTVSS VL: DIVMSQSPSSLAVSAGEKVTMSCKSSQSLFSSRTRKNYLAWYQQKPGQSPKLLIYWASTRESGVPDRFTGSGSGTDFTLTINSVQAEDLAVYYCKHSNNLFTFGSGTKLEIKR	%	5

Item: murine monoclonal antibody 6D11 (antibody, mouse IgG1, V domains shown, Mouse IgG1, kappa, from hybridoma; also called m338-6D11.8) VH: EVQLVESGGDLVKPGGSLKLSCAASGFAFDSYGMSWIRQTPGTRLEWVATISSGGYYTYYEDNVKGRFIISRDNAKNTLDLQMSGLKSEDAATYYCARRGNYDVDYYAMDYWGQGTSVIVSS VL: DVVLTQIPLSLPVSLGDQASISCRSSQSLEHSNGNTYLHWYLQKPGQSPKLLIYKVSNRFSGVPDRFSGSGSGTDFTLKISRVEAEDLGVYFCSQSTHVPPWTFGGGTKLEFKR | relative binding activity (% of WT): 65

Item: murine monoclonal antibody 1F10 (antibody, mouse IgG1, V domains shown, Mouse IgG1, lambda 1, from hybridoma; also called m338-1F10.3) VH: EVKLLESGGGLVQPGGSLKLSCAASGFDFSRYWMSWVRQAPGKGLEWIGEINPDSSTMNYTPSLKDKFIISRDNAKNTLYLQMSKVRSEDTALYYCARGAYAMDYWGQGTSVTVSS VL: QAVVTQESALTTSPGETVTLTCRSSTGAVTTSNNANWVQEKPDHLFTGLIGATNNRAPGVPARFSGSLIGDKAALTITGAQTEDEAIYFCALWYINHWVFGGGTKLTVLG | relative binding activity (% of WT): 100
